assay: Ratio of drug concentration in rat brain to plasma at po administration measured after 1 hr
reportedEndpoint: Kp at 1 h
Give a plain numeric answer without units written out.

Req: What does the data say about its Kp at 1 h? Entry: Nc1nc(N)c(-c2ccc(NCc3ccc(Cl)cc3)cc2)c(COCc2ccccc2)n1
Resp: 3.05

Values were extracted from ChEMBL document CHEMBL5579799.
